All values here come from ChEMBL document CHEMBL4433227.

Test system: Human immunodeficiency virus 1
assay-name: Binding affinity to HIV-1 FSS RNA assessed as dissociation rate constant by SPR assay
For each of the molecules below, state its Kdiss.
Answer in ×10⁻³ /s, number only, no unit symbol.

Supply recorded Kdiss for `CCc1nc2ccccc2cc1C(=O)N(C)[C@@H](CCn1cc(C[C@@H](C(=O)N2C[C@H](O)C[C@H]2C(=O)N(C)[C@@H](Cc2ccccc2)C(=O)NCCCN)N(C)C(=O)c2cc3ccccc3nc2CC)nn1)C(=O)N1C[C@H](O)C[C@H]1C(=O)N(C)[C@@H](Cc1ccccc1)C(=O)NCCCN` here.
6.8

Return value of Kdiss for input `CN(C(=O)c1cnc2ccccc2c1)[C@@H](CCn1cc(C[C@@H](C(=O)N2C[C@H](O)C[C@H]2C(=O)N(C)[C@@H](Cc2ccccc2)C(N)=O)N(C)C(=O)c2cnc3ccccc3c2)nn1)C(=O)N1C[C@H](O)C[C@H]1C(=O)N(C)[C@@H](Cc1ccccc1)C(N)=O` , no commentary.
5.41

====

assay-name: Competitive binding affinity to HIV-1 FSS RNA assessed as dissociation constant in presence of bulk yeast tRNA by SPR assay
Set-up: species or system Human immunodeficiency virus 1
attribute-measured: pKd
Convention used: pKd is expressed as -log10 of the molar concentration.

Give me measured pKd, please, for this compound: `CCc1nc2ccccc2cc1C(=O)N(C)[C@@H](CCn1cc(C[C@@H](C(=O)N2CCC[C@H]2C(=O)N(C)[C@@H](Cc2ccccc2)C(N)=O)N(C)C(=O)c2cc3ccccc3nc2CC)nn1)C(=O)N1CCC[C@H]1C(=O)N(C)[C@@H](Cc1ccccc1)C(N)=O`
4.77

Provide measured pKd value, entry: `CN(C(=O)c1cnc2ccccc2c1)[C@@H](CCn1cc(C[C@@H](C(=O)N2CCC[C@H]2C(=O)N(C)[C@@H](Cc2ccccc2)C(=O)NCCCN)N(C)C(=O)c2cnc3ccccc3c2)nn1)C(=O)N1CCC[C@H]1C(=O)N(C)[C@@H](Cc1ccccc1)C(=O)NCCCN`
6.91

// fetch pKd given entry `CCc1nc2cc3ccccc3cc2cc1C(=O)N(C)[C@@H](CCn1cc(C[C@@H](C(=O)N2CCC[C@H]2C(=O)N(C)[C@@H](Cc2ccccc2)C(=O)NCCCN)N(C)C(=O)c2cc3cc4ccccc4cc3nc2CC)nn1)C(=O)N1CCC[C@H]1C(=O)N(C)[C@@H](Cc1ccccc1)C(=O)NCCCN`
6.89

Give pKd for `CCc1nc2ccccc2cc1C(=O)N(C)[C@@H](CCn1cc(C[C@@H](C(=O)N2C[C@H](O)C[C@H]2C(=O)N(C)[C@@H](Cc2ccccc2)C(=O)NCCCN)N(C)C(=O)c2cc3ccccc3nc2CC)nn1)C(=O)N1C[C@H](O)C[C@H]1C(=O)N(C)[C@@H](Cc1ccccc1)C(=O)NCCCN`
6.36

Dear colleague, please send me the reported pKd for `CCc1nc2ccccc2cc1C(=O)N(C)[C@@H](CCn1cc(C[C@@H](C(=O)N2CCC[C@H]2C(=O)N(C)[C@@H](Cc2ccccc2)C(=O)NCCCN)N(C)C(=O)c2cc3ccccc3nc2CC)nn1)C(=O)N1CCC[C@H]1C(=O)N(C)[C@@H](Cc1ccccc1)C(=O)NCCCN` when you can.
6.88

Report pKd for `CN(C(=O)c1cnc2ccccc2c1)[C@@H](CCn1cc(C[C@@H](C(=O)N2C[C@H](O)C[C@H]2C(=O)N(C)[C@@H](Cc2ccccc2)C(=O)NCCCN)N(C)C(=O)c2cnc3ccccc3c2)nn1)C(=O)N1C[C@H](O)C[C@H]1C(=O)N(C)[C@@H](Cc1ccccc1)C(=O)NCCCN`
6.74
